For each entry below, report its log10 EC50 value.
systemName: human 5-HT1A receptor (Homo sapiens (Human))
Sequence (P08908 whole entry): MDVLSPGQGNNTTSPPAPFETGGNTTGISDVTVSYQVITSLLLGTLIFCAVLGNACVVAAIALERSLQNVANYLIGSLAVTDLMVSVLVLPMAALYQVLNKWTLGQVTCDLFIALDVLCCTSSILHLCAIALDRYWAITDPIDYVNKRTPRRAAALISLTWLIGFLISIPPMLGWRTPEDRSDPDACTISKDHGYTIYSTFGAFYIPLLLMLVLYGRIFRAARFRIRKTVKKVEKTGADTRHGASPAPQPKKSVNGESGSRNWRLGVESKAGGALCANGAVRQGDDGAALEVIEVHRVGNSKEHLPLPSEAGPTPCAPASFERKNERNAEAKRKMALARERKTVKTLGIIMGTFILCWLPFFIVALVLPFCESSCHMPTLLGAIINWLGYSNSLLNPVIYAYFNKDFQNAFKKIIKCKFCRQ
assayExplanation: Test 1: agonistic activity for human 5-HT1A receptor (aequorin/Gα16 luminescence in CHO-K1 cell)
runParameters: CHO-K1 cell, aequorin luminescence
All values: base-10 log of EC50 in nM.

Problem: Test system human 5-HT1A receptor (Homo sapiens (Human)); read-out log10 EC50; what value for Nc1cccc(C2CCN(CCNC(=O)C3CCOCC3)CC2)n1 ?
Solution: 2.45

Problem: Test system human 5-HT1A receptor (Homo sapiens (Human)); read-out log10 EC50; what value for COCC(C)(C)C(=O)NCCN1CC=C(c2cccc(C)n2)CC1 ?
Solution: 1.97

Problem: Test system human 5-HT1A receptor (Homo sapiens (Human)); read-out log10 EC50; what value for O=C(NCCN1CCC(c2cccc(C(F)F)n2)CC1)C1CCOCC1 ?
Solution: 1.34

Problem: Test system human 5-HT1A receptor (Homo sapiens (Human)); read-out log10 EC50; what value for CO[C@H]1CC[C@H](C(=O)NCCN2CCC(c3cccc(C)n3)CC2)CC1 ?
Solution: 2.60

Problem: Test system human 5-HT1A receptor (Homo sapiens (Human)); read-out log10 EC50; what value for COCC(C)(C)C(=O)NCCN1CCC(c2cccc(C)n2)CC1 ?
Solution: 1.62

Problem: Test system human 5-HT1A receptor (Homo sapiens (Human)); read-out log10 EC50; what value for CC(C)(C)C(=O)NCCN1CC=C(c2cccc(C(F)(F)F)n2)CC1 ?
Solution: 1.54

Problem: Test system human 5-HT1A receptor (Homo sapiens (Human)); read-out log10 EC50; what value for COCC(C)(C)C(=O)NCCN1CCC(c2cccc(C(F)(F)F)n2)CC1 ?
Solution: 1.64

Problem: Test system human 5-HT1A receptor (Homo sapiens (Human)); read-out log10 EC50; what value for Cc1cccc(C2CCN(CCNC(=O)C3CCCOC3)CC2)n1 (centres unmarked) ?
Solution: 2.00

Problem: Test system human 5-HT1A receptor (Homo sapiens (Human)); read-out log10 EC50; what value for O=C(NCCN1CCC(c2cccc(C(F)(F)F)n2)CC1)C1CCCOC1 (centres unmarked) ?
Solution: 2.51

Problem: Test system human 5-HT1A receptor (Homo sapiens (Human)); read-out log10 EC50; what value for CN(C)c1cccc(C2CCN(CCNC(=O)C3CCOCC3)CC2)n1 ?
Solution: 1.93

Problem: Test system human 5-HT1A receptor (Homo sapiens (Human)); read-out log10 EC50; what value for COc1cccc(C2CCN(CCNC(=O)C3CCOCC3)CC2)n1 ?
Solution: 1.34

Problem: Test system human 5-HT1A receptor (Homo sapiens (Human)); read-out log10 EC50; what value for O=C(NCCN1CCC(c2cccc(C(F)(F)F)n2)CC1)[C@H]1C[C@@H]2CC[C@H]1O2 ?
Solution: 1.92

Problem: Test system human 5-HT1A receptor (Homo sapiens (Human)); read-out log10 EC50; what value for O=C(NCCN1CC=C(c2cccc(C(F)(F)F)n2)CC1)C1CCCOC1 (centres unmarked) ?
Solution: 1.63

Problem: Test system human 5-HT1A receptor (Homo sapiens (Human)); read-out log10 EC50; what value for O=C(NCCN1CCC(c2cccc(OC(F)(F)F)n2)CC1)C1CCOCC1 ?
Solution: 1.67

Problem: Test system human 5-HT1A receptor (Homo sapiens (Human)); read-out log10 EC50; what value for Cc1cccc(C2=CCN(CCNC(=O)C(C)(C)C)CC2)n1 ?
Solution: 1.43

Problem: Test system human 5-HT1A receptor (Homo sapiens (Human)); read-out log10 EC50; what value for O=C(NCCN1CCC(c2cccc(C(F)(F)F)n2)CC1)C1CCOCC1 ?
Solution: 1.91

Problem: Test system human 5-HT1A receptor (Homo sapiens (Human)); read-out log10 EC50; what value for Cc1cccc(C2=CCN(CCNC(=O)C3CCCCO3)CC2)n1 (centres unmarked) ?
Solution: 1.76
